Readings of IC50 for the listed molecules
System: Aspergillus flavus
Assay: Antifungal activity against Aspergillus flavus ATCC 204304 after 48 h by CLSI method
Settings: ATCC 204304, 48 h
# unit: nM | format: bare number

Worked examples follow.
CN(C/C=C/C#CC(C)(C)C)Cc1cccc2ccccc12 [TERBINAFINE] ... 300
CCCCCCCCCC#CCCCCC(=O)O ... 106000
CC(=O)N1CCN(c2ccc(OCC3COC(Cn4ccnc4)(c4ccc(Cl)cc4Cl)O3)cc2)CC1 (stereo not given) [KETOCONAZOLE] ... 2800

From here, focus on the item given below.
Value lookup for IC50; key = C[C@@H]1[C@H](O)[C@@H](C)/C=C/C=C/C=C/C=C/C=C/C=C/C=C/[C@H](O[C@@H]2O[C@H](C)[C@@H](O)[C@H](N)[C@@H]2O)C[C@@H]2O[C@](O)(C[C@@H](O)C[C@@H](O)[C@H](O)CC[C@@H](O)C[C@@H](O)CC(=O)O[C@H]1C)C[C@H](O)[C@H]2C(=O)O [AMPHOTERICIN B]
1500

Taken from ChEMBL document CHEMBL1275449.
